Source listed as ChEMBL document CHEMBL1148650.

- experimental-system: Thromboxane A2 receptor (Homo sapiens)
- protocol-details: Displacement of [3H]SQ29,548 from TPalpha receptor (short isoform) expressed in COS7 cells at 1 nM
- condition-context: COS-7
measured-metric: Activity
Could you write the number and then its unit?

# Activity (compound: CCCCCNC(=O)NS(=O)(=O)c1cc([N+](=O)[O-])ccc1Nc1ccc(C)c(C)c1 ) is 40.1%

Lab book: Activity of CCCCCNC(=O)NS(=O)(=O)c1cc([N+](=O)[O-])ccc1Nc1ccc(C)cc1C noted as 42.3%

The reported Activity of the compound CCCCCNC(=O)NS(=O)(=O)c1cc([N+](=O)[O-])ccc1Oc1ccc(C)cc1 was 35.5%

Quick note, Activity for CCCCNC(=O)NS(=O)(=O)c1cc([N+](=O)[O-])ccc1Oc1ccc(C)cc1 landed at 55.7%

Activity in this record for CCCCCCCNC(=O)NS(=O)(=O)c1cc([N+](=O)[O-])ccc1NC1CCCCC1 : 29.5%

Activity recorded for this compound, Cc1ccc(Nc2ccc([N+](=O)[O-])cc2S(=O)(=O)NC(=O)NCc2ccccc2)cc1 , is 32.9%

Entry Cc1ccc(Oc2ccc([N+](=O)[O-])cc2S(=O)(=O)NC(=O)NC(C)(C)C)cc1 , Activity reported as 53.3%

The compound listed as CCCCCNC(=O)NS(=O)(=O)c1cc([N+](=O)[O-])ccc1Sc1ccccc1C shows Activity equal to 33.4%

For record CCCCC/N=C(\NC#N)NS(=O)(=O)c1cc([N+](=O)[O-])ccc1Nc1cc(C)cc(C)c1 the listed Activity is 48%

* * *

- experimental-system: Thromboxane A2 receptor (Homo sapiens, UniProt P21731)
- Sequence (P21731 whole entry): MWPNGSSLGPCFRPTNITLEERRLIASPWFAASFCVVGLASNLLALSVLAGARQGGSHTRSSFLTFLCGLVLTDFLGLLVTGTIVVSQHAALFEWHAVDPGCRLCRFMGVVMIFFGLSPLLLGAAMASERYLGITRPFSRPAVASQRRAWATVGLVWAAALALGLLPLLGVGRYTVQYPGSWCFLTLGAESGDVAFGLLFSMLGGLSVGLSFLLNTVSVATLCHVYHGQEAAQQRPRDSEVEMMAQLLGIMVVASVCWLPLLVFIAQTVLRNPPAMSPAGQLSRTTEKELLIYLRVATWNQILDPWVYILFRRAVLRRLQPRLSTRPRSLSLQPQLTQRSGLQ
- protocol-details: Activity at TPalpha (short isoform) receptor expressed in HEK293 cells assessed as ability to antagonize U46619-mediated calcium ion mobilization
- Type: functional, cell-based
pIC50: −log10 of the molar value.
Use 7 as the dividing line for pIC50, with the line itself on the true (1) side and lower values as false (0).

# bool: pIC50 of Cc1cccc(C)c1Nc1ccc([N+](=O)[O-])cc1S(=O)(=O)NC(=O)NC(C)(C)C >= 7 true (1)

Please indicate if the recorded pIC50 for CCCCCNC(=O)NS(=O)(=O)c1cc([N+](=O)[O-])ccc1Nc1ccc(C)cc1 meets or exceeds 7. true (1)

Has Cc1ccc(Nc2ccc([N+](=O)[O-])cc2S(=O)(=O)NC(=O)NC(C)(C)C)cc1 a recorded pIC50 greater than or equal to 7? false (0)

Is reported pIC50 greater than or equal to 7 here: CCCCCNC(=O)NS(=O)(=O)c1cc([N+](=O)[O-])ccc1Nc1cc(C)cc(C)c1 false (0)

* * *

- experimental-system: Thromboxane A2 receptor (Homo sapiens)
- Sequence (whole entry): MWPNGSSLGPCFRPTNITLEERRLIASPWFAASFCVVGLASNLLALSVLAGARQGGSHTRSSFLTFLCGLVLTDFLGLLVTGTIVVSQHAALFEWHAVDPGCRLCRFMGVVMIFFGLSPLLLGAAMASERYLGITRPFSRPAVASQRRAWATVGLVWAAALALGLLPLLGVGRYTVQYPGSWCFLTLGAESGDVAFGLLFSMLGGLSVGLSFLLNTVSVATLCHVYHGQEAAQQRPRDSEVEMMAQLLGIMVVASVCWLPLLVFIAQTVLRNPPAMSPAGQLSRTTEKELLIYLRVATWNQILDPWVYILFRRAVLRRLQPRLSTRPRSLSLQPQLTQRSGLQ
- protocol-details: Displacement of [3H]SQ29,548 from TPalpha receptor (short isoform) expressed in COS7 cells at 1 nM
- condition-context: COS-7
measured-metric: Activity (%)
Hi! Could you send only the number? It should be in %, unit omitted.

The reported Activity of the compound Cc1ccc(Nc2ccc([N+](=O)[O-])cc2S(=O)(=O)NC(=O)N2CCCCC2)cc1 was 46.2

Please fill in: Activity reported for CCCCCNC(=O)NS(=O)(=O)c1cc([N+](=O)[O-])ccc1Nc1ccc(Cl)cc1 = 48.9

GET /value?item= CCCCCNC(=O)NS(=O)(=O)c1cc([N+](=O)[O-])ccc1Nc1ccccc1C &field=Activity returns 45.3

In plain terms, Cc1ccc(Sc2ccc([N+](=O)[O-])cc2S(=O)(=O)NC(=O)NC(C)(C)C)cc1 has a documented Activity of 47

Kindly note the recorded Activity for Cc1cc(Nc2ccc([N+](=O)[O-])cc2S(=O)(=O)NC(=O)NC(C)(C)C)ccc1Br , which is 28.5

* * *

- experimental-system: Thromboxane A2 receptor (Homo sapiens) (UniProt P21731)
- Sequence (whole entry): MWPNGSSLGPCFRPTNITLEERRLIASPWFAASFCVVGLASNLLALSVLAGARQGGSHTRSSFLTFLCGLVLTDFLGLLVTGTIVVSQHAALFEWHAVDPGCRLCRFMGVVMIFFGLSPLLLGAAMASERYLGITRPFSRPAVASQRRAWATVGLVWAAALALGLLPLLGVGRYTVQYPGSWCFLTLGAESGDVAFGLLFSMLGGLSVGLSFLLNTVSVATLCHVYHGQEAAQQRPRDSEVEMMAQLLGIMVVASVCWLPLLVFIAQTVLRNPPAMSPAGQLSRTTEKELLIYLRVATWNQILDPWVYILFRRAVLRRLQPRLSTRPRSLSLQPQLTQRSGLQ
- protocol-details: Displacement of [3H]SQ-29548 from TPbeta receptor (long isoform) expressed in COS7 cells at 1 nM
- condition-context: COS-7
measured-metric: Activity (%)
Reply with just the number (in %).

Query CCCCC/N=C(\NC#N)NS(=O)(=O)c1cc([N+](=O)[O-])ccc1Nc1cc(C)cc(C)c1 yields Activity of 53.4

Data point: CCCCCNC(=O)NS(=O)(=O)c1cc([N+](=O)[O-])ccc1Sc1ccc(Cl)cc1 ; Activity = 21.3

Form: compound = Cc1ccc(Oc2ccc([N+](=O)[O-])cc2S(=O)(=O)NC(=O)NC(C)(C)C)cc1 ; Activity = 44.7

So, CCCCCNC(=O)NS(=O)(=O)c1cc([N+](=O)[O-])ccc1Oc1ccc(C)cc1 ? Its Activity was 48.5

The compound identified as CCCCCNC(=O)NS(=O)(=O)c1cc([N+](=O)[O-])ccc1Nc1ccc(C)c(C)c1 registered its Activity at 48.7

The value of Activity measured for the compound Cc1ccc(Nc2ccc([N+](=O)[O-])cc2S(=O)(=O)NC(=O)NCc2ccccc2)cc1 turned out to be 49.3

Note to self: Activity recorded for CCCCCNC(=O)NS(=O)(=O)c1cc([N+](=O)[O-])ccc1Nc1ccc(C)cc1 was 34.2

The recorded Activity for entry CCCCCCNC(=O)NS(=O)(=O)c1cc([N+](=O)[O-])ccc1NC1CCCCC1 equals 42.5

response.value for CCCCCNC(=O)NS(=O)(=O)c1cc([N+](=O)[O-])ccc1Sc1ccc(C)cc1 (field: Activity) = 43

* * *

- experimental-system: Thromboxane A2 receptor (Homo sapiens)
- protocol-details: Displacement of [3H]SQ29,548 from TPalpha receptor (short isoform) expressed in COS7 cells at 1 nM
- condition-context: COS-7
measured-metric: Activity (%)
The reply should contain only the number, in %.

The compound Cc1ccc(Nc2ccc([N+](=O)[O-])cc2S(=O)(=O)NC(=O)NC(C)(C)C)cc1 , when measured on Thromboxane A2 receptor (Homo sapiens), yielded Activity of 49.5

Record for Cc1cccc(C)c1Nc1ccc([N+](=O)[O-])cc1S(=O)(=O)NC(=O)NC(C)(C)C under target or system Thromboxane A2 receptor (Homo sapiens): Activity reported as 46.4

Simply: CCCCCNC(=O)NS(=O)(=O)c1cc([N+](=O)[O-])ccc1Sc1ccc(C)cc1 , Thromboxane A2 receptor (Homo sapiens), Activity = 38.5

Hey, Thromboxane A2 receptor (Homo sapiens) data for Cc1ccc(Oc2ccc([N+](=O)[O-])cc2S(=O)(=O)NC(=O)NC2CCCCC2)cc1 : Activity came out at 49.8

Form field, Activity with Thromboxane A2 receptor (Homo sapiens), item CCCCCNC(=O)NS(=O)(=O)c1cc([N+](=O)[O-])ccc1Nc1cc(C)cc(C)c1 : 49.7

Tested on Thromboxane A2 receptor (Homo sapiens), the item Cc1ccc(Nc2ccc([N+](=O)[O-])cc2S(=O)(=O)NC(=O)NC2CCCCC2)cc1 showed Activity equal to 31.1

Sample CCCCCNC(=O)NS(=O)(=O)c1cc([N+](=O)[O-])ccc1Oc1cccc(C)c1 , system: Thromboxane A2 receptor (Homo sapiens). Its Activity is 20.1
